system: Plasmodium berghei; experiment: Screen against P. berghei liver stage (PbLuc), transformed with Luciferase, at 10uM; format: functional, HepG2; conditions: tested at 10 uM
Out of some 69,000 compounds screened, about 8,600 (12%) showed an effect of 50% or more. Shown is part of a subset that was picked to be rich in strong results.
// INHIBITION lookup, one value per entry
Your answer should be a plain number; it is taken to be in %.

{"compound": "CC(C(=O)NCc1cn2cc(Br)ccc2n1)S(C)(=O)=O (stereo not drawn)", "INHIBITION (%)": 40.6}
{"compound": "CC(CNC(=O)c1ccn(-c2ccc(F)cc2)n1)Cn1cccn1 (stereo not drawn)", "INHIBITION (%)": 39.6}
{"compound": "CC(C)COCCC(=O)NCc1cn2cc(Br)ccc2n1", "INHIBITION (%)": 55.1}
{"compound": "CS(=O)(=O)NCC1CCCN(C(=O)Nc2cccnc2N2CCCC2)C1 (stereo not drawn)", "INHIBITION (%)": -8.69}
{"compound": "COCC(=O)NCc1cc(=O)n2c(n1)CN(CC1CC1)CCC2", "INHIBITION (%)": 26.7}

In one line, give reported INHIBITION of the entry CCC(CC)C(=O)NCc1cn2cc(Br)ccc2n1 .
50

In one line, give reported INHIBITION of the entry O=C(c1ccco1)N1CC[C@@H]2O[C@H](COCC3CCOCC3)CC[C@@H]21 .
-4.99

In one line, give reported INHIBITION of the entry NC(=O)N1CC[C@@H]2O[C@@H](COCC(=O)N3CCCC3)CC[C@@H]21 .
15.4

Where these numbers come from: ChEMBL document CHEMBL4513216
